Assign IC50 to each entry below.
test-target: H-2 K^d (Mus musculus)
Sequence (P01902 22-368): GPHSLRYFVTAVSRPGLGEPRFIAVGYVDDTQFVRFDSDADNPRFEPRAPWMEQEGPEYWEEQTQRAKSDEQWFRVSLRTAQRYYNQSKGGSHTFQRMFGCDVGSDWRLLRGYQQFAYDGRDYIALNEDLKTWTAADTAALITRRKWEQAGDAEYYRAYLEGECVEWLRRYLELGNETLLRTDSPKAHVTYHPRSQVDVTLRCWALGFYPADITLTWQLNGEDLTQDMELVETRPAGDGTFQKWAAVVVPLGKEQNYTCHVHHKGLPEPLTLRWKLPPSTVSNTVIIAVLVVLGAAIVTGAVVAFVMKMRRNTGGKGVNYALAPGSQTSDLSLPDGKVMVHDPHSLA
Sequence (P61769 21-119 partner): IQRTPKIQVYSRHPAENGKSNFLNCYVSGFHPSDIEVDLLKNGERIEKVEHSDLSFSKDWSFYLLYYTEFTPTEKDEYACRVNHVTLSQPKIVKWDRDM
assay-notes: Binding of peptides to purified H-2 K^d (inhibition of radiolabeled standard peptide)
test-context: wild type counterpart peptide; Table 4; read-out: Measured IC50 for K^d Mut/WT: WT
Ends that are not written are not given here.

Some substances with known IC50 results, for comparison:
CYAKVKEQL [Ssx2ip, CYAK(v/L)KEQL]    3.2 nM
AYCETCWE(l/W) (AYCETCWEL; not fully specified; printed as AYCETCWE(l/W); cysteine pairing not given here; listed as Mus musculus) [Apc]    60 nM
HYINMILPI [Ufsp2, HYINM(i/S)LPI]    < 0.1 nM

Fill in the recorded IC50 for this substance, with H-2 K^d (Mus musculus) as test system: YYVPLLKRVP(l/S) (YYVPLLKRVPL; not fully specified; printed as YYVPLLKRVP(l/S); listed as Mus musculus) [Alms1.2]
1480 nM
